Test system: CEM cells HIV-1 protection, formazan growth assay
Test: NCI AIDS Antiviral Assay
Calls of active or inactive are those of the source.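 How the source made its calls: active means compounds giving half or more protection of infected cells from virus-caused growth loss, again on retest; inactive means the rest.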
Just give me one of these, please: active, inactive

Query string: Call for entry COC1=C(C)C(=O)c2nc(Cl)ccc2C1=O :
Result string: inactive

Query string: Call for entry O=C1NC(=O)C(=Cc2ccccc2[N+](=O)[O-])C(=O)N1 :
Result string: inactive

Query string: Call for entry O=C(O)c1c(-c2cccc3ccccc23)sc(-c2cccc3ccccc23)c1C(=O)O :
Result string: inactive

Query string: Call for entry Cc1ccc(SSCC(O)C(O)CSSc2ccc(C)cc2)cc1 (stereo not drawn) :
Result string: inactive

Query string: Call for entry C=C1C2CC[C@@]3(CC[C@@H]4[C@@]5(C)CCC[C@@]4(C=[N+](CCOC(C)=O)C5)[C@@H]3C2)[C@@H]1OC(C)=O :
Result string: inactive

Query string: Call for entry O=C(O)/C(Cl)=C(/Cl)C(=O)Nc1cc(Cl)ccc1Cl :
Result string: inactive

Query string: Call for entry O=C1C(=O)N(C(=O)c2ccc(Cl)c(Cl)c2)c2ccccc21 :
Result string: inactive

Query string: Call for entry C=CCOCn1cnc2c(N)ncnc21 :
Result string: inactive

Query string: Call for entry O=C(NC12CC3CC(CC(C3)C1)C2)C(=O)c1c[nH]c2ccc(Cl)cc12 :
Result string: inactive

Query string: Call for entry Cc1cccc[c]1[Sb](=[O])([OH])[OH] :
Result string: active

Query string: Call for entry COc1cccc2c1C(=O)c1c(O)c3c(c(O)c1C2=O)C[C@@](O)(C(C)=O)C[C@@H]3OC1CC(N(C)C)C(O)C(C)O1 (stereo partly drawn) :
Result string: inactive

Query string: Call for entry CC(C)c1ccc(C(c2ccc(OCC(=O)NCCN(C)C)cc2)c2ccc(C(C)C)cc(=O)c2O)c(O)c(=O)c1 :
Result string: inactive

Query string: Call for entry Cc1ccc(/C=N/NS(=O)(=O)c2ccccc2)c(C)c1 :
Result string: inactive

Query string: Call for entry C=C(CCCO)[C@@H]1CC[C@](C)(O)[C@H]1C :
Result string: inactive

Query string: Call for entry O=C1CCCc2[nH]c(=O)ccc21 :
Result string: inactive

Query string: Call for entry CCCCCCCCCCCCC/C=C/[C@@H](OC(=O)c1ccccc1)C(CO)N=[N+]=[N-] (stereo partly drawn) :
Result string: inactive

Query string: Call for entry CCC(=O)C12OC3OC(C)(C)OC3C1OC(C)(C)O2 (stereo not drawn) :
Result string: inactive

Query string: Call for entry O=C(O)c1cc(=O)c2[nH]c3ccccc3c2s1 :
Result string: inactive

Query string: Call for entry CCOC(=O)C(C(=O)OCC)=c1sc(=C(C(=O)OCC)C(=O)OCC)s1 :
Result string: inactive

Query string: Call for entry COc1ccc2c(c1)OC[C@H]1c3cc(O)c(O)cc3O[C@@H]21 :
Result string: inactive

Query string: Call for entry O=C1C=C(NC(=O)C2CCCCC2)c2ncccc2C1=O :
Result string: inactive

Query string: Call for entry CCOC(=O)NC(=O)c1cn(CCOC(=O)NCCCCCCNC(=O)OCCn2cc(C(=O)NC(=O)OCC)c(=O)[nH]c2=O)c(=O)[nH]c1=O :
Result string: inactive

Query string: Call for entry CCOC(=O)c1cnc2cc3cccccc3n2c1=O :
Result string: inactive

Query string: Call for entry Cn1c(=O)c2nc3c4ccccc4c(=O)n(C)c3nc2n(C)c1=O :
Result string: inactive

Query string: Call for entry CCCCCCCCC1C(C)c2c([nH]c3ccccc23)C2C(=O)N(c3ccccc3)C(=O)C21 (stereo not drawn) :
Result string: inactive

Query string: Call for entry O=C(O)/C(O)=C1/C=C(c2ccccc2)c2ccccc21 :
Result string: inactive

Query string: Call for entry COc1ccc(C(=O)/C=C/c2ccc(OCCCCCCCCCCOc3ccc(/C=C/C(=O)c4ccc(OC)c(OC)c4)cc3)cc2)c(OC)c1 :
Result string: inactive

Query string: Call for entry CC(/C(=N\Nc1ccccc1)c1ccc(O)cc1)C1C(=O)Oc2ccccc21 (stereo not drawn) :
Result string: inactive

Query string: Call for entry Cc1cc2c(c(C(N)=O)c1C)-c1cccc(Cl)c1C2=O :
Result string: inactive

Query string: Call for entry Cc1ccc(C2(C)CCC(C(C)(C)O)OO2)cc1 (stereo not drawn) :
Result string: inactive

Query string: Call for entry N.N.N.N.N.NC(=O)[O-].[Co+3].[I-] :
Result string: inactive

Query string: Call for entry Cc1cc(O)ccc1C1(c2ccc(F)cc2)OC(=O)c2ccccc21 (stereo not drawn) :
Result string: inactive

Query string: Call for entry CC1(C)CCC(Sc2ccccc2)O1 (stereo not drawn) :
Result string: inactive

Query string: Call for entry C=C=C(C(=O)OC)S(=O)c1ccc([N+](=O)[O-])cc1[N+](=O)[O-] (stereo not drawn) :
Result string: inactive

Query string: Call for entry Cc1ccc(S(=O)(=O)N2CCC3(C(/C=C/c4ccccc4)=Nc4ccccc43)C2c2ccccc2)cc1 (stereo not drawn) :
Result string: inactive

Query string: Call for entry O=C(CC(=O)N1N=C(N(c2ccccc2)c2ccccc2)CC1c1ccccc1)Nc1ccccc1 (stereo not drawn) :
Result string: inactive

Query string: Call for entry CCC1=CC2CC(C(=O)OC)C1(N(C)C)C2=O (stereo not drawn) :
Result string: inactive

Query string: Call for entry Cc1nnc2sc(=S)[nH]n12 :
Result string: inactive

Query string: Call for entry [N-]=[N+]=NC1CC(n2cc(Cc3cccc(OCc4ccccc4)c3)c(=O)[nH]c2=O)OC1CO (stereo not drawn) :
Result string: inactive

Query string: Call for entry CCOC(=O)C(C)(c1c(C)[nH]c2ccccc12)c1c(C)[nH]c2ccccc12 :
Result string: inactive

Query string: Call for entry CC1=CCC23C(C1)OC(Br)(C=CC2(C)O)C3(C)C (stereo not drawn) :
Result string: inactive

Query string: Call for entry Cc1ccc(NC(=O)C(=O)C2C(=O)N(c3ccccc3)N=C2N)cc1C (stereo not drawn) :
Result string: inactive

Query string: Call for entry O=C1Nc2ccccc2C12OCCS2 (stereo not drawn) :
Result string: inactive

----------
System: CEM cells HIV-1 protection, formazan growth assay
Assay: NCI AIDS Antiviral Assay
Where a SMILES comes first, the peptide text is derived from it. The star is where a group is joined. Boc = CC(C)(C)OC(=O)*; OBn = c1ccc(CO*)cc1
Would you mind telling me the reported EC50 of each entry?

Query string: Return value of EC50 for input ClCc1c(-c2ccccc2)nn(-c2ccccc2)c1CCl , no commentary.
Result string: > 200 µM

Query string: Return value of EC50 for input Oc1ccc2ccccc2c1NCn1nc(CCCCCCCCc2nn(CNc3c(O)ccc4ccccc34)c(=S)o2)oc1=S , no commentary.
Result string: > 200 µM

Query string: Return value of EC50 for input CCC1=[N+]([O-])C(C)(C)NC1(C)C , no commentary.
Result string: > 200 µM

Query string: Return value of EC50 for input CC(C)CC(NC(=O)OC(C)(C)C)C(=O)NC(CC(=O)OCc1ccccc1)C(=O)OCc1ccccc1 (stereo not drawn) (Boc-Leu-Asp(OBn)-OBn; configuration not given here) , no commentary.
Result string: > 200 µM

Query string: Return value of EC50 for input CO/C=C(/C#N)S(=O)(=O)/C(C#N)=C/OC , no commentary.
Result string: > 200 µM

Query string: Return value of EC50 for input C(=C\c1cc(-c2ccc3ccccc3n2)nc2ccc3ccccc3c12)/c1ccc2ccccc2n1 , no commentary.
Result string: > 200 µM

Query string: Return value of EC50 for input [Cu+2].c1nnc(N2CNCCNCN(c3nnc[n-]3)CNCCNC2)[n-]1 , no commentary.
Result string: > 200 µM

Query string: Return value of EC50 for input N#C/C(=C\c1ccc(O)c(O)c1)C(N)=O , no commentary.
Result string: > 25.1 µM

Query string: Return value of EC50 for input Cc1ccc2c(c1)nc(N)n[n+]2[O-] , no commentary.
Result string: > 100 µM

Query string: Return value of EC50 for input O=S(=O)([O-])[O-].O=c1[nH]cnc2[nH]ncc12.O=c1[nH]cnc2[nH]ncc12.[Cu+2] , no commentary.
Result string: > 83.2 µM

Query string: Return value of EC50 for input Clc1nc(Cl)nc(Nc2cccc3ccccc23)n1 , no commentary.
Result string: > 200 µM

Query string: Return value of EC50 for input COc1ccc(/C=C/C(=O)c2cc(C(C)(C)C)c(O)c(C(C)(C)C)c2)cc1 , no commentary.
Result string: > 10.2 µM

Query string: Return value of EC50 for input O=C1CCCCCN1c1ccccn1 , no commentary.
Result string: > 1320 µM

Query string: Return value of EC50 for input COc1ccc(N/C=C2\C(=O)CCc3c2oc2cc(Cl)c(O)c(Cl)c32)cc1 , no commentary.
Result string: > 200 µM

Query string: Return value of EC50 for input CCOC(=O)/C(=C\c1cccc(C#N)c1)C(C)=O , no commentary.
Result string: > 389 µM

Query string: Return value of EC50 for input SC[C@@H]1COC[C@H](CS)S1 , no commentary.
Result string: > 95.5 µM

Query string: Return value of EC50 for input O=C(CC1(O)C(=O)Nc2c(Cl)cc(Cl)cc21)c1cccc([N+](=O)[O-])c1 (configuration not stated) , no commentary.
Result string: > 19.1 µM

Query string: Return value of EC50 for input c1cnc2c(c1)-n1cccc1C1(CCSCC1)NN2 , no commentary.
Result string: > 60.3 µM

Query string: Return value of EC50 for input C1CC2N=C3OCCC3N=C2O1 (configuration not stated) , no commentary.
Result string: > 1510 µM

Query string: Return value of EC50 for input Cc1cc(O)c(C(C)C)cc1NC(=O)Nc1cccc2ccccc12 , no commentary.
Result string: > 56.2 µM

Query string: Return value of EC50 for input CCOC(=O)C(/C(=N\NC(=O)OC)C(=O)Nc1cc(OC)ccc1OC)c1cnc2ccccc2n1 (configuration not stated) , no commentary.
Result string: 81.3 µM

Query string: Return value of EC50 for input N#Cc1nc(C2OC(COC(=O)c3ccccc3)C(OC(=O)c3ccccc3)C2OC(=O)c2ccccc2)oc1N (configuration not stated) , no commentary.
Result string: > 18.2 µM
